IC50 values, listed per item
test_target: UniProtKB P51659
Sequence (P51659 other isoform, or with tags, fused parts or gaps): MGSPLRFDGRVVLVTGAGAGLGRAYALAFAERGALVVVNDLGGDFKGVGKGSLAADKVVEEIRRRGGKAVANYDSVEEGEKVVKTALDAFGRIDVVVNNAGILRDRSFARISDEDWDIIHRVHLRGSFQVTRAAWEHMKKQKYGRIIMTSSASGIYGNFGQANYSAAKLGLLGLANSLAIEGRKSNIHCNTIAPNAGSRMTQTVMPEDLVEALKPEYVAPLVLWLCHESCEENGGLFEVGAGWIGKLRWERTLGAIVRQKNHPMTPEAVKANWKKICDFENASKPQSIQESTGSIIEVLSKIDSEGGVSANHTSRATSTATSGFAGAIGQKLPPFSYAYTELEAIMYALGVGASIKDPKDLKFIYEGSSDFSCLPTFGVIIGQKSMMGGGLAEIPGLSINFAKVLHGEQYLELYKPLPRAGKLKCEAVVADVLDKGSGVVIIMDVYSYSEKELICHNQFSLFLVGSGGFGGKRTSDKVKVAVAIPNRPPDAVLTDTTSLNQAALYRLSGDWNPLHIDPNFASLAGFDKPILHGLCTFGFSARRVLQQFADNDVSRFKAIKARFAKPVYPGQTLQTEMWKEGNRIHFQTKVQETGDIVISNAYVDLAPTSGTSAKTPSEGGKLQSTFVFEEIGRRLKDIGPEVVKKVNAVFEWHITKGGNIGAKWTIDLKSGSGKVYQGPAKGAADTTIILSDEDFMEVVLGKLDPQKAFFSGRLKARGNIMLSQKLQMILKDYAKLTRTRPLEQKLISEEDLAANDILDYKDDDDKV
reported_metric: IC50 (µM)

{"compound": "Cc1ccc2c(c1)Oc1ccccc1C2NC(=O)c1c(C)cc(C(F)(F)F)[nH]c1=O (stereo not shown) [Compound 198]", "reported_metric": "IC50", "measure_unit": "µM", "value_qualifier": ">", "obs_value": 100}
{"compound": "Cc1ccc(C(NC(=O)c2cc(C)c(C(F)(F)F)[nH]c2=O)c2ccc(C)cc2)cc1 [Compound 115]", "reported_metric": "IC50", "measure_unit": "µM", "value_qualifier": ">", "obs_value": 100}
{"compound": "O=C(NC(c1ccccc1)c1ccc2c(c1)CCCC2)c1ccc(C(F)(F)F)[nH]c1=O (stereo not shown) [Compound 80]", "reported_metric": "IC50", "measure_unit": "µM", "value_qualifier": "=", "obs_value": 48.7}
{"compound": "Cc1ccc2c(c1)Oc1cc(C)ccc1C2NC(=O)c1ccc(C(F)(F)F)[nH]c1=O [Compound 52]", "reported_metric": "IC50", "measure_unit": "µM", "value_qualifier": ">", "obs_value": 100}
{"compound": "O=C(NC1c2ccccc2Oc2cc(CC(F)(F)F)ccc21)c1ccc(C(F)(F)F)[nH]c1=O (stereo not shown) [Compound 141]", "reported_metric": "IC50", "measure_unit": "µM", "value_qualifier": "=", "obs_value": 58.2}
{"compound": "O=C(NC1c2ccccc2Oc2cc(Cl)ccc21)c1ccc(C(F)(F)F)[nH]c1=O (stereo not shown) [Compound 15A]", "reported_metric": "IC50", "measure_unit": "µM", "value_qualifier": ">", "obs_value": 100}
{"compound": "O=C(NC(c1ccccc1)c1ccc2c(c1)COC2)c1ccc(C(F)(F)F)[nH]c1=O (stereo not shown) [Compound 94]", "reported_metric": "IC50", "measure_unit": "µM", "value_qualifier": "=", "obs_value": 96.6}

* * *

assay_info: Microsome stability assay, human liver microsomes
Type: in vitro ADME
test_parameters: 60 min; 1 μM compound, 0.5 mg/mL microsomal protein
reported_metric: Microsome Stability Human liver microsomes % Remaining @60 min (%)

{"compound": "O=C(Nc1cccc2c(O)cccc12)c1ccc(C(F)(F)F)[nH]c1=O", "obs_value": 60.30}
{"compound": "Cc1ccc2c(c1)Oc1cc(C)ccc1C2NC(=O)c1cc(OC2CCOCC2)c(C(F)(F)F)[nH]c1=O", "obs_value": 24.50}
{"compound": "CCC[C@@H]1C[C@@H](NC(=O)c2ccc(C(F)(F)F)[nH]c2=O)c2cc(C)ccc2N1", "obs_value": 60.50}
{"compound": "O=C(NC(c1ccccc1)c1ccc(CC(F)(F)F)cc1)c1ccc(C(F)(F)F)[nH]c1=O (stereo not drawn)", "obs_value": 84.70}
{"compound": "Cc1ccc2c(c1)-c1cc(C)ccc1C2NC(=O)c1ccc(C(F)(F)F)[nH]c1=O", "obs_value": 31.30}
{"compound": "CS(=O)(=O)Nc1ccc(C(NC(=O)c2ccc(C(F)(F)F)[nH]c2=O)c2ccccc2)cc1 (stereo not drawn)", "obs_value": 93.90}
{"compound": "Cc1ccc(C(CC2CCC2)NC(=O)c2ccc(C(F)(F)F)[nH]c2=O)cc1 (stereo not drawn)", "obs_value": 1}
{"compound": "CC(C)c1ccc(C(NC(=O)c2ccc(C(F)(F)F)[nH]c2=O)c2ccccc2)cc1 (stereo not drawn)", "obs_value": 5.70}
{"compound": "O=C(NC(c1ccc(Cl)cc1)c1ccc(Cl)cc1)c1ccc(C(F)(F)F)[nH]c1=O", "obs_value": 97.60}
{"compound": "COc1ccc2c(c1)CCCC2NC(=O)c1ccc(C(F)(F)F)[nH]c1=O (stereo not drawn)", "obs_value": 1}
{"compound": "Cc1ccc(CNC(=O)c2ccc(C(F)(F)F)[nH]c2=O)cc1", "obs_value": 1.00}
{"compound": "Cc1ccc(C(NC(=O)c2ccc(C(F)(F)F)[nH]c2=O)c2ccc(C)cc2)cc1", "obs_value": 41.70}
{"compound": "CCc1ccc(C(NC(=O)c2ccc(C(F)(F)F)[nH]c2=O)c2ccccc2)cc1 (stereo not drawn)", "obs_value": 1.12}
{"compound": "O=C(NC(c1ccccc1)c1ccc(-c2ccccc2)cc1)c1ccc(C(F)(F)F)[nH]c1=O (stereo not drawn)", "obs_value": 3.40}
{"compound": "CCC[C@H]1Oc2ccc(C)cc2[C@@H]1NC(=O)c1ccc(C(F)(F)F)[nH]c1=O", "obs_value": 28.20}
{"compound": "Cc1ccc2c(c1)Sc1cc(C)ccc1C2NC(=O)c1cc(-c2ccccn2)c(C(F)(F)F)[nH]c1=O", "obs_value": 0.85}
{"compound": "Cc1ccc(C(NC(=O)c2ccc(C(F)(F)F)[nH]c2=O)c2ccccc2)cc1C (stereo not drawn)", "obs_value": 0.10}
{"compound": "O=C(NC1c2ccc(Cl)cc2Oc2cccc(Cl)c21)c1ccc(C(F)(F)F)[nH]c1=O (stereo not drawn)", "obs_value": 44.00}
{"compound": "COc1ccc(C(NC(=O)c2ccc(C(F)(F)F)[nH]c2=O)c2ccccc2)cc1 (stereo not drawn)", "obs_value": 16.00}
{"compound": "COc1ccc2c(c1)Oc1cnccc1C2NC(=O)c1ccc(C(F)(F)F)[nH]c1=O (stereo not drawn)", "obs_value": 62}
{"compound": "CCC1Cc2cc(C)ccc2C1NC(=O)c1ccc(C(F)(F)F)[nH]c1=O (stereo not drawn)", "obs_value": 1}
{"compound": "Cc1ccc2c(c1)Sc1cc(C)ccc1C2NC(=O)c1ccc(C(F)(F)F)[nH]c1=O", "obs_value": 73.50}
{"compound": "Cc1ccc2c(c1)[C@H](O)CC[C@H]2NC(=O)c1ccc(C(F)(F)F)[nH]c1=O", "obs_value": 67.80}
{"compound": "O=C(NC1CCCc2c(O)cccc21)c1ccc(C(F)(F)F)[nH]c1=O (stereo not drawn)", "obs_value": 83.40}
{"compound": "COc1ccc2c(c1)Sc1ccccc1C2NC(=O)c1ccc(C(F)F)[nH]c1=O (stereo not drawn)", "obs_value": 73.40}
{"compound": "CCC[C@@H]1C[C@@H](NC(=O)c2ccc(C(F)(F)F)[nH]c2=O)c2ccc(C)cc2N1", "obs_value": 35.70}
{"compound": "CCCC1CCc2cc(C)ccc2C1NC(=O)c1ccc(C(F)(F)F)[nH]c1=O (stereo not drawn)", "obs_value": 1.49}
{"compound": "Cc1ccc2c(c1)OCCC2NC(=O)c1ccc(C(F)(F)F)[nH]c1=O (stereo not drawn)", "obs_value": 45}
{"compound": "CCC1Cc2cc(C)ccc2C(NC(=O)c2ccc(C(F)(F)F)[nH]c2=O)C1 (stereo not drawn)", "obs_value": 10}
{"compound": "CCC[C@@H]1C[C@H](NC(=O)c2ccc(C(F)(F)F)[nH]c2=O)c2ccc(C)cc2N1", "obs_value": 51.70}
{"compound": "Cc1ccc(C(NC(=O)c2ccc(C(F)(F)F)[nH]c2=O)c2ccccc2)cc1 (stereo not drawn)", "obs_value": 0.40}
{"compound": "O=C(NC1c2ccccc2-c2ccccc21)c1ccc(C(F)(F)F)[nH]c1=O", "obs_value": 1.00}
{"compound": "Nc1cccc2c1CCCC2NC(=O)c1ccc(C(F)(F)F)[nH]c1=O (stereo not drawn)", "obs_value": 88.90}

* * *

test_target: HSD17B13 (Homo sapiens (Human))
Sequence (Q7Z5P4 other isoform, or with tags, fused parts or gaps): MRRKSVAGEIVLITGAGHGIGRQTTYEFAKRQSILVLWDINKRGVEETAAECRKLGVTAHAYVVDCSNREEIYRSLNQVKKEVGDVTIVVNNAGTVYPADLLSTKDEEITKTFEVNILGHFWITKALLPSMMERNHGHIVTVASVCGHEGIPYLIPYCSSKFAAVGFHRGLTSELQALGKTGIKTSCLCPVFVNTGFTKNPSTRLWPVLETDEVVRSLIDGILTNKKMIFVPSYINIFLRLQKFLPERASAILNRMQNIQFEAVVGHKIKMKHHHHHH
assay_info: HSD17B13 enzymatic inhibition assay (150 nM or 50 nM HSD17B13)
Assay type: biochemical
test_parameters: 50 nM HSD17B13; read-out: Inhibition of 50 nM of HSD17B13 IC50
pIC50: −log10 of the molar value.
The threshold is inclusive: pIC50 of exactly 6 counts as Met; values below receive Not met.

{"compound": "COc1ccc2c(c1)Sc1ccccc1C2NC(=O)c1ccc(C(F)(F)F)[nH]c1=O (centres unmarked)", "assigned_class": "Met"}
{"compound": "COc1ccc2c(c1)CCCC2NC(=O)c1ccc(C(F)(F)F)[nH]c1=O (centres unmarked)", "assigned_class": "Met"}
{"compound": "O=C(NC(c1ccccc1)c1ccc(C2CCNCC2)cc1)c1ccc(C(F)(F)F)[nH]c1=O (centres unmarked)", "assigned_class": "Not met"}
{"compound": "Cc1ccc2c(c1)Oc1cc(C)ccc1C2NC(=O)c1ccc(C(F)F)[nH]c1=O", "assigned_class": "Met"}
{"compound": "O=C(NC(c1ccccc1)c1ccc2c(c1)CCCC2)c1ccc(C(F)(F)F)[nH]c1=O (centres unmarked)", "assigned_class": "Met"}
{"compound": "CCCc1ccc2c(c1)C(NC(=O)c1ccc(C(F)(F)F)[nH]c1=O)c1ccccc1S2(=O)=O (centres unmarked)", "assigned_class": "Met"}
{"compound": "Cc1ccc2c(c1)Sc1cc(C)ccc1C2NC(=O)c1cc(-c2ncccn2)c(C(F)(F)F)[nH]c1=O", "assigned_class": "Met"}
{"compound": "Cc1ccc2c(c1)Oc1cc(C)ccc1C2NC(=O)c1cc(-c2ccc(=O)[nH]c2)c(C(F)(F)F)[nH]c1=O", "assigned_class": "Met"}
{"compound": "Cc1ccc2c(c1)Oc1cc(C)ccc1C2NC(=O)c1cc(-c2cnccn2)c(C(F)(F)F)[nH]c1=O", "assigned_class": "Met"}
{"compound": "CCCc1cc(C(=O)NC2c3ccc(C)cc3Oc3cc(C)ccc32)c(=O)[nH]c1C(F)(F)F", "assigned_class": "Met"}
{"compound": "Cc1ccc(C(C)NC(=O)c2ccc(C(F)(F)F)[nH]c2=O)cc1 (centres unmarked)", "assigned_class": "Not met"}
{"compound": "O=C(NC(c1ccccc1OC(F)(F)F)c1ccccc1OC(F)(F)F)c1ccc(C(F)(F)F)[nH]c1=O", "assigned_class": "Not met"}
{"compound": "C=Cc1ccc2c(c1)Oc1cccc(C=C)c1C2NC(=O)c1ccc(C(F)(F)F)[nH]c1=O (centres unmarked)", "assigned_class": "Met"}
{"compound": "C=Cc1ccc2c(c1)C(NC(=O)c1ccc(C(F)(F)F)[nH]c1=O)c1ccccc1O2 (centres unmarked)", "assigned_class": "Met"}
{"compound": "NCc1cccc2c1CCCC2NC(=O)c1ccc(C(F)(F)F)[nH]c1=O (centres unmarked)", "assigned_class": "Not met"}
{"compound": "CN1CC(c2ccc3c(c2)C(NC(=O)c2ccc(C(F)(F)F)[nH]c2=O)c2ccccc2O3)C1 (centres unmarked)", "assigned_class": "Not met"}
{"compound": "O=C(NC(c1ccccc1)c1cccc(Br)n1)c1ccc(C(F)(F)F)[nH]c1=O (centres unmarked)", "assigned_class": "Not met"}
{"compound": "O=C(NC(c1ccccc1)c1ccccc1)c1ccc(C(F)(F)F)[nH]c1=O", "assigned_class": "Not met"}
{"compound": "CCC1CCc2cc(O)ccc2C1NC(=O)c1ccc(C(F)(F)F)[nH]c1=O (centres unmarked)", "assigned_class": "Met"}
{"compound": "O=C(NC1c2cc(Cl)ccc2Oc2ccc(Cl)cc21)c1ccc(C(F)(F)F)[nH]c1=O", "assigned_class": "Not met"}
{"compound": "Cc1ccc2c(c1)Oc1cc(C)ccc1C2NC(=O)c1cc(-c2cccnc2)c(C(F)(F)F)[nH]c1=O", "assigned_class": "Met"}
{"compound": "CCCc1cc(C(=O)NC2c3ccc(C)cc3Oc3cccc(C)c32)c(=O)[nH]c1C(F)(F)F (centres unmarked)", "assigned_class": "Met"}
{"compound": "O=C(NC1CCc2ccccc21)c1ccc(C(F)(F)F)[nH]c1=O (centres unmarked)", "assigned_class": "Not met"}
{"compound": "CCC1Oc2ccc(C)cc2C1NC(=O)c1ccc(C(F)(F)F)[nH]c1=O (centres unmarked)", "assigned_class": "Met"}
{"compound": "O=C(Nc1cccc2c(O)cccc12)c1ccc(C(F)(F)F)[nH]c1=O", "assigned_class": "Met"}
